# MEASUREMENT PROTOCOL: Preparation of liposome: maximum amount of compound forming liposome, particle size
# Format: physicochemical
# ASSAY CONTEXT: with dipalmitoyl-PC 50 nmol + dipalmitoyl-PS 50 nmol, 0.9% physiological saline, ultrasonicated
Please go through the items and note down their Maximum amount forming liposome.

Query: Could you share which Maximum amount forming liposome value was measured for CC(C)CCC[C@@H](C)[C@H]1CC[C@H]2[C@@H]3CC=C4C[C@@H](OC(=O)CCCCCCCCCC(C)Oc5cc(C(F)(F)F)cc(C(F)(F)F)c5)CC[C@]4(C)[C@H]3CC[C@]12C (stereo partly shown) ?
Reply: 20 nmol

Query: Could you share which Maximum amount forming liposome value was measured for CC(C)CCC[C@@H](C)[C@H]1CC[C@H]2[C@@H]3CC=C4C[C@@H](OC(=O)Oc5cc(C(F)(F)F)cc(C(F)(F)F)c5)CC[C@]4(C)[C@H]3CC[C@]12C ?
Reply: 40 nmol

Query: Could you share which Maximum amount forming liposome value was measured for O=C(CCCCCCCC(F)(F)C(F)(F)C(F)(F)C(F)(F)C(F)(F)C(F)(F)F)OCC(COC(=O)CN1CCOCC1)OC(=O)CCCCCCCC(F)(F)C(F)(F)C(F)(F)C(F)(F)C(F)(F)C(F)(F)F (stereo not shown) [Compound e1-6] ?
Reply: 40 nmol

Query: Could you share which Maximum amount forming liposome value was measured for CC(C)CCC[C@@H](C)[C@H]1CC[C@H]2[C@@H]3CC=C4C[C@@H](OC(=O)CCC(=O)Oc5cc(C(F)(F)F)cc(C(F)(F)F)c5)CC[C@]4(C)[C@H]3CC[C@]12C ?
Reply: 20 nmol
